# Read-out: CD38, CD38 (gene 952)
# Protocol summary: BSK_SAg_CD38: BioMAP Diversity Plus: SAg Assay for CD38 Biomarker Activity (AID 2283087)
# Reported conditions: primary human HUVEC with PBMC; actives raise or lower the signal
The source made the active and inactive calls. How the source made its calls: active means hit-call score of the fitted dose curve at least 0.9, where 1 is the maximum; inactive means score below 0.9.
Reply using exactly one outcome from Y for active, N for inactive

# count of solved cases: 6
1) O=C(O)C(F)(F)C(F)(F)C(F)(F)C(F)(F)C(F)(F)F ... N
2) CC(C)(O)C(=O)Nc1ccc([N+](=O)[O-])c(C(F)(F)F)c1 ... N
3) c1cc2ccc3cccc4ccc(c1)c2c34 ... Y
4) CC1=C2C[C@H]3[C@@H](CC=C4C[C@@H](O)CC[C@@]43C)[C@@H]2CC[C@]12O[C@@H]1C[C@H](C)CN[C@H]1[C@H]2C ... N
5) CCOC(=O)C(O)(c1ccc(Cl)cc1)c1ccc(Cl)cc1 ... Y
6) N#Cc1ccc(N(CC(N)=O)CC(F)(F)F)cc1C(F)(F)F ... N

Ask: Please indicate how the test categorized `Oc1ccc(C(c2ccc(O)cc2)(C(F)(F)F)C(F)(F)F)cc1` .
Reply: Y

Ask: Fill in: this test's call for `O=NN(c1ccccc1)c1ccccc1` is ___
Reply: N

Ask: Please state the recorded outcome for this molecule: `CO/C=C(/C(=O)OC)c1ccccc1COc1cccc(C(F)(F)F)n1`
Reply: Y
